# test_system: human GLP-1 receptor (human, UniProt P43220 24-463)
# protocol_details: cell-based or functional assay
Numbered stars: 1 amine (or outer) side, 2 acyl side, 3 side chain; on linkers, the order of the positions; unused ones are H or OH. Square brackets hold non-standard residues; d marks the D form. Side chains are listed from the residue outwards. * marks the point of attachment. C16 diacid = O=C(O)CCCCCCCCCCCCCCC(=O)*; γGlu = O=C(O)[C@H](CCC(=O)[*:2])N[*:1]; Chem. 28 = not defined here; AEEA = NCCOCCOCC(=O)O; Aib = CC(C)(N)C(=O)O
hGLP-1R Potency, no HSA, EC50 [pM] values by entry
Give the quantity in pM, number only.

binder	hGLP-1R Potency, no HSA, EC50 [pM] (pM)
Compound 31 (reading uncertain) peptide: Y[Aib]EGTFTSDYSILLEEQAAREFIEWLLAGGPSSK(Chem. 28)APPPSGGGEASELSTAALGRLSAELHRLATLPRTETGSGSP-NH2	47.8
Compound 59 (peptide) peptide: Y[Aib]EGTFTSDYSILLEEQAAREFIEWLLAGGPSSGALAQTLAQTLASHLSTAQTQRLSAELHK([AEEA-AEEA-γGlu-C16 diacid])LATLPRTETGSGSP-NH2	50.6
Compound 24 (reading uncertain) peptide: Y[Aib]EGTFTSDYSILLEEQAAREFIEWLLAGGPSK(Chem. 28)GALAQTLFVNQASELSTAALGRLSAELHELATLPRTETGSGSP-NH2	51.5

Now take the following binder into account.
Ask: Which hGLP-1R Potency, no HSA, EC50 [pM] reading was recorded for the binder Compound 34 (reading uncertain) peptide: Y[Aib]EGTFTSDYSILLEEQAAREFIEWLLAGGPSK(Chem. 28)GEASHLSTAQTQRLSAELHELATLPRTETGSGSP-NH2 ?
Reply: 21.7

Reference source for all entries: patent US20260174875A1
